Listed here: items and their measured shrunken log2 fold change.
- Test system: Escherichia coli TOP10
- ASSAY METHOD TEXT: shrunken log2 fold change of peptide-encoding DNA abundance (4.5 h post-induction vs induction); higher = less antimicrobial activity (less host growth inhibition)
- RECORDED CONDITIONS: time post-induction: 4.5 h; library: site-saturation at positions 5, 18, 19, 20

SEQUENCE TEXT	shrunken log2 fold change
RRIRTRPPRLPRPRPRPQQLPRP	1.75
RRIRARPPRLPRPRPRPNNCPRP	-0.466
RRIRPRPPRLPRPRPRPTPTPRP	0.483
RRIRSRPPRLPRPRPRPQLQPRP	0.104
RRIRVRPPRLPRPRPRPTEVPRP	0.0934
RRIRDRPPRLPRPRPRPIDEPRP	0.0126
RRIRHRPPRLPRPRPRPYFRPRP	-0.296
RRIRHRPPRLPRPRPRPGSRPRP	-0.168
RRIRARPPRLPRPRPRPESQPRP	0.454
RRIRGRPPRLPRPRPRPTAKPRP	1.92
RRIRQRPPRLPRPRPRPCRNPRP	-0.0117
RRIRSRPPRLPRPRPRPNDWPRP	0.179
RRIRFRPPRLPRPRPRPDASPRP	0.146
RRIRRRPPRLPRPRPRPDPPPRP	0.443
RRIRKRPPRLPRPRPRPVVMPRP	3.16

###

- Tested on: Escherichia coli TOP10
- ASSAY METHOD TEXT: shrunken log2 fold change of peptide-encoding DNA abundance (4.5 h post-induction vs induction); higher = less antimicrobial activity (less host growth inhibition)
- RECORDED CONDITIONS: time post-induction: 4.5 h; library: site-saturation at positions 5, 18, 19, 20
Lab note: anything with shrunken log2 fold change at or over -0.2 counts as label 1; the rest go in label 0.

SEQUENCE TEXT	ASSIGNED CATEGORY
RRIRMRPPRLPRPRPRPESRPRP	label 1
RRIRNRPPRLPRPRPRPGRIPRP	label 1
RRIRERPPRLPRPRPRPGEAPRP	label 1
RRIRTRPPRLPRPRPRPYHYPRP	label 1
RRIRVRPPRLPRPRPRPYLLPRP	label 0
RRIRYRPPRLPRPRPRPNQLPRP	label 0
RRIRLRPPRLPRPRPRPVNCPRP	label 1

###

- System: Escherichia coli TOP10
- ASSAY METHOD TEXT: shrunken log2 fold change of peptide-encoding DNA abundance (4.5 h post-induction vs induction); higher = less antimicrobial activity (less host growth inhibition)
- RECORDED CONDITIONS: time post-induction: 4.5 h; library: site-saturation at positions 5, 18, 19, 20
Classification field: enter 1 (yes) for shrunken log2 fold change values not below 0.05, 0 (no) for values below it.

SEQUENCE TEXT	ASSIGNED CATEGORY
RRIRKRPPRLPRPRPRPASMPRP	1 (yes)
RRIRTRPPRLPRPRPRPNFEPRP	0 (no)
RRIRPRPPRLPRPRPRPYHKPRP	0 (no)
RRIRLRPPRLPRPRPRPYAYPRP	0 (no)
RRIRWRPPRLPRPRPRPNHPPRP	0 (no)
RRIRGRPPRLPRPRPRPYTSPRP	0 (no)
RRIRTRPPRLPRPRPRPYNMPRP	0 (no)
RRIRDRPPRLPRPRPRPKQAPRP	0 (no)
RRIRPRPPRLPRPRPRPAPFPRP	1 (yes)
RRIRDRPPRLPRPRPRPAELPRP	0 (no)
RRIRNRPPRLPRPRPRPSCWPRP	1 (yes)
RRIRQRPPRLPRPRPRPHGSPRP	0 (no)
RRIRIRPPRLPRPRPRPPGEPRP	1 (yes)
RRIRPRPPRLPRPRPRPDHFPRP	0 (no)
RRIRPRPPRLPRPRPRPPYQPRP	1 (yes)
RRIRLRPPRLPRPRPRPYFHPRP	0 (no)
RRIRTRPPRLPRPRPRPNLGPRP	1 (yes)
RRIRYRPPRLPRPRPRPLQDPRP	0 (no)
RRIRRRPPRLPRPRPRPWTSPRP	0 (no)
RRIRWRPPRLPRPRPRPCVPPRP	0 (no)
RRIRERPPRLPRPRPRPGCIPRP	0 (no)
RRIRGRPPRLPRPRPRPCTAPRP	1 (yes)
RRIRNRPPRLPRPRPRPLCHPRP	0 (no)
RRIRPRPPRLPRPRPRPAMNPRP	1 (yes)
RRIRHRPPRLPRPRPRPIGIPRP	0 (no)
RRIRNRPPRLPRPRPRPWFHPRP	0 (no)
RRIRNRPPRLPRPRPRPLMIPRP	0 (no)
RRIRGRPPRLPRPRPRPFKDPRP	0 (no)
RRIRERPPRLPRPRPRPMDDPRP	0 (no)
RRIRWRPPRLPRPRPRPKRSPRP	1 (yes)
RRIRKRPPRLPRPRPRPPHLPRP	1 (yes)
RRIRWRPPRLPRPRPRPGNLPRP	0 (no)
RRIRQRPPRLPRPRPRPAENPRP	0 (no)
RRIRPRPPRLPRPRPRPAMHPRP	1 (yes)
RRIRPRPPRLPRPRPRPLDIPRP	0 (no)
RRIRWRPPRLPRPRPRPFELPRP	0 (no)
RRIRCRPPRLPRPRPRPPHPPRP	1 (yes)
RRIRFRPPRLPRPRPRPSYSPRP	0 (no)
RRIRTRPPRLPRPRPRPASAPRP	1 (yes)
RRIRWRPPRLPRPRPRPYGGPRP	0 (no)
RRIRDRPPRLPRPRPRPEPAPRP	1 (yes)
RRIRMRPPRLPRPRPRPHALPRP	0 (no)
RRIRIRPPRLPRPRPRPACTPRP	1 (yes)
RRIRLRPPRLPRPRPRPIVHPRP	1 (yes)
RRIRWRPPRLPRPRPRPDHVPRP	0 (no)
RRIRRRPPRLPRPRPRPSNGPRP	0 (no)
RRIRFRPPRLPRPRPRPYDMPRP	0 (no)
RRIRQRPPRLPRPRPRPFCSPRP	0 (no)
RRIRKRPPRLPRPRPRPTIAPRP	1 (yes)
RRIRSRPPRLPRPRPRPCHVPRP	0 (no)

###

- Tested on: Escherichia coli TOP10;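 note: peptides expressed intracellularly from a pBAD plasmid library in pooled LB shake-flask culture, induced with 0.3% L-arabinose, DNA abundance read by NGS, three biological replicates, DESeq2 with apeglm shrinkage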
- ASSAY METHOD TEXT: shrunken log2 fold change of peptide-encoding DNA abundance (4.5 h post-induction vs induction); higher = less antimicrobial activity (less host growth inhibition)
- RECORDED CONDITIONS: time post-induction: 4.5 h; library: site-saturation at positions 5, 18, 19, 20
Reported shrunken log2 fold change is given for each of the following sequences.
MEASURED ATTRIBUTE: shrunken log2 fold change

SEQUENCE TEXT	DATA VALUE
RRIRWRPPRLPRPRPRPEWQPRP	0.0276
RRIRTRPPRLPRPRPRPVLMPRP	0.187
RRIRMRPPRLPRPRPRPCDPPRP	-0.0166
RRIRDRPPRLPRPRPRPRLFPRP	0.653
RRIRSRPPRLPRPRPRPWSDPRP	-0.164
RRIRFRPPRLPRPRPRPIHKPRP	-0.775
RRIRLRPPRLPRPRPRPAWKPRP	0.151
RRIRARPPRLPRPRPRPYRYPRP	-0.274
RRIRDRPPRLPRPRPRPSDHPRP	-0.422
RRIRYRPPRLPRPRPRPLQGPRP	-0.0139
RRIRTRPPRLPRPRPRPLMFPRP	-0.516
RRIRERPPRLPRPRPRPLNVPRP	-0.0706
RRIRKRPPRLPRPRPRPMNTPRP	-0.287
RRIRWRPPRLPRPRPRPGMFPRP	0.281
RRIRWRPPRLPRPRPRPEMWPRP	1.05
RRIRERPPRLPRPRPRPPDFPRP	0.00276
RRIRRRPPRLPRPRPRPQIMPRP	-0.137
RRIRRRPPRLPRPRPRPEKGPRP	-0.0235
RRIRPRPPRLPRPRPRPTWQPRP	0.543
RRIRWRPPRLPRPRPRPPYQPRP	-0.172
RRIRPRPPRLPRPRPRPHRFPRP	0.645
RRIRDRPPRLPRPRPRPHFQPRP	-0.236
RRIRQRPPRLPRPRPRPSLGPRP	-0.162
RRIRSRPPRLPRPRPRPDNRPRP	-0.00987
RRIRNRPPRLPRPRPRPRCEPRP	0.357
RRIRHRPPRLPRPRPRPVARPRP	0.227
RRIRPRPPRLPRPRPRPKDAPRP	0.164
RRIRQRPPRLPRPRPRPYTMPRP	-0.128
RRIRMRPPRLPRPRPRPLLKPRP	2.7
RRIRERPPRLPRPRPRPEVNPRP	-0.0365
RRIRIRPPRLPRPRPRPYVMPRP	-0.274
RRIRCRPPRLPRPRPRPLMFPRP	-0.433
RRIRARPPRLPRPRPRPNPAPRP	0.796
RRIRRRPPRLPRPRPRPNWPPRP	0.118
RRIRTRPPRLPRPRPRPEIYPRP	-0.329
RRIRGRPPRLPRPRPRPRHQPRP	0.026
RRIRNRPPRLPRPRPRPKNNPRP	-0.407
RRIRFRPPRLPRPRPRPAHMPRP	0.129
RRIRPRPPRLPRPRPRPFWAPRP	0.0614
RRIRVRPPRLPRPRPRPSPEPRP	-0.142
RRIRNRPPRLPRPRPRPVCRPRP	0.0204
RRIRDRPPRLPRPRPRPCHFPRP	-0.105
